For each record, write down the corresponding pIC50.
target: IDO (Homo sapiens (Human), UniProt P14902); assay: Kynurenine assay in IFN-γ-stimulated Hela cells; type: cell-based; conditions: 20 h, read-out: Hela Kyurenine (IC50)
Sequence (P14902 whole entry): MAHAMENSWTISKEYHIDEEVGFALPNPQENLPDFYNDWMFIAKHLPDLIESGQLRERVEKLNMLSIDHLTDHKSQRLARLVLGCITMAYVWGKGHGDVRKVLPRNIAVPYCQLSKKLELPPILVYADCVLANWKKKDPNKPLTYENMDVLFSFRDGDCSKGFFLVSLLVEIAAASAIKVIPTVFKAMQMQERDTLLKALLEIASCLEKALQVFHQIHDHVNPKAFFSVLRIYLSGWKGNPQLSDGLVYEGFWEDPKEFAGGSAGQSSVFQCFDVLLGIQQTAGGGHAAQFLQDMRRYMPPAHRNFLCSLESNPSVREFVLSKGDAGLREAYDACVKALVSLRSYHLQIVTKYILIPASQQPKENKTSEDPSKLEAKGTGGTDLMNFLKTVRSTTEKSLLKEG
Answers are plain numbers, as −log10 of the molar value.

CCOc1ccc(-c2ccc(Oc3ccccc3C(C)(C)C)c(NC(=O)Nc3ccc(C)cc3)c2)cc1C(=O)O [Example 5] : 6.92

Batch request: pIC50 per item, same order as input.
1. CCCCNC(=O)Nc1cc(-c2ccc(OC)c(C(=O)O)c2)ccc1Oc1ccccc1C(C)(C)C [Example 90]
2. CCCc1ccccc1Oc1ccc(-c2ccc(OC)c(C(=O)O)c2)cc1NC(=O)Nc1ccccc1C [Example 75]

output:
[6.59, 6.43]

###

For each record, write down the corresponding IC50.
target: IDO (Homo sapiens (Human)); assay: Kynurenine assay in IFN-γ-stimulated Hela cells; format: cell-based; conditions: 20 h, read-out: Hela Kyurenine (IC50)
Quote the value and follow it with the unit of measurement.

CCCNC(=O)Nc1cc(-c2ccc(OC)c(C(=O)O)c2)ccc1Oc1ccccc1C(C)(C)C : 120 nM

Batch request: IC50 per item, same order as input.
1. COc1cccc(NC(=O)Nc2cc(-c3cccc(C(=O)O)c3)ccc2Oc2ccccc2C(C)(C)C)c1
2. COc1ccc(-c2ccc(Oc3ccccc3C(C)(C)C)c(NC(=O)Nc3cc(Cl)ccc3Cl)c2)cc1C(=O)O
3. Cc1ccccc1NC(=O)Nc1cc(-c2cc(F)cc(C(=O)O)c2)ccc1Oc1ccccc1C(C)(C)C
4. Cc1cccc(NC(=O)Nc2cc(-c3ccc(C(=O)O)c(Cl)c3)ccc2Oc2ccccc2C(C)(C)C)c1
5. CC(C)(C)c1ccccc1Oc1ccc(-c2ccc(C(=O)O)cc2)cc1NC(=O)Nc1ccccc1Cl

output:
1. 1890 nM
2. 100 nM
3. 350 nM
4. 930 nM
5. 1690 nM

###

target: IDO (Homo sapiens (Human)); experiment: LLE_IDO_ABS_DR (IDO assay, method not described)
Flag rule - IC50 less than 300 nM flags yes (1); the remaining entries get no (0).

input: Record "CCCOc1c(NC(=O)Nc2ccc(C3CC3)cc2)cc(-c2ccccc2-c2nnn[nH]2)cc1C1CC1" : is its IC50 strictly below 300 nM?
output: no (0)

input: Record "COc1ccc(-c2cnc(Oc3ccccc3C(C)(C)C)c(NC(=O)Nc3cccc(C)c3)c2)cc1C(=O)O" : is its IC50 strictly below 300 nM?
output: no (0)

input: Record "Cc1ccc(NC(=O)Nc2cc(-c3ccccc3-c3nnn[nH]3)cc(CC3CC3)c2Oc2ccccc2)cc1" : is its IC50 strictly below 300 nM?
output: no (0)

input: Record "COc1ccc(-c2ccc(Oc3ccccc3C(C)(C)C)c(NC(=O)Nc3ccccc3F)c2)cc1C(=O)O" : is its IC50 strictly below 300 nM?
output: yes (1)

input: Record "COc1ccc(-c2ccc(Oc3cccc4c3CCC4)c(NC(=O)Nc3ccccc3Cl)c2)cc1C(=O)O" : is its IC50 strictly below 300 nM?
output: yes (1)

input: Record "Cc1ccccc1NC(=O)Nc1cc(-c2ccc(Cl)cc2C(=O)O)ccc1Oc1ccccc1C(C)(C)C" : is its IC50 strictly below 300 nM?
output: no (0)

###

target: IDO (Homo sapiens (Human)); experiment: LLE_IDO_ABS_DR (IDO assay, method not described)
PROPERTY LABEL: IC50
Quote the value and follow it with the unit of measurement.

CC/C=C/Cc1cc(-c2ccccc2-c2nnn[nH]2)cc(NC(=O)Nc2ccc(C)cc2)c1OCCC [Example 285] : 0.14 µM

Batch request: IC50 per item, same order as input.
1. COc1ccc(-c2ccc(Oc3ccccc3C(C)(C)C)c(NC(=O)Nc3ccc(C)cc3)c2)c(C(=O)O)c1 [Example 163]
2. COc1ccc(-c2ccc(Oc3cccc(C(C)(C)C)c3)c(NC(=O)Nc3cccc(C)c3)c2)cc1C(=O)O [Example 112]
3. COc1ccc(-c2ccc(Oc3cccc4c3CCCC4)c(NC(=O)Nc3ccccc3F)c2)cc1C(=O)O [Example 152]
4. COc1ccc(-c2ccc(Oc3cccc4c3CCCC4=O)c(NC(=O)Nc3ccccc3Cl)c2)cc1C(=O)O [Example 149]
5. Cc1ccc(NC(=O)Nc2cc(-c3ccccc3-c3nnn[nH]3)cc(CC3CC3)c2OCC2CC2)cc1 [Example 324]
6. COc1ccc(-c2ccc(Oc3ccccc3C3CC3)c(NC(=O)Nc3cccc(C)c3)c2)cc1C(=O)O [Example 126]
7. CC(C)C(Oc1ccc(-c2ccccc2-c2nnn[nH]2)cc1NC(=O)Nc1ccccc1F)C(C)C [Example 11]

output:
1: 0.47 µM; 2: 1.05 µM; 3: 0.29 µM; 4: 2.05 µM; 5: 1.07 µM; 6: 0.76 µM; 7: 0.16 µM

Batch request: IC50 per item, same order as input.
1. COc1ccc(-c2ccc(Oc3ccccc3C(C)(C)C)c(NC(=O)Nc3cccc(Cl)c3Cl)c2)cc1C(=O)O [Example 81]
2. CCCCc1cc(-c2ccccc2C(=O)O)cc(NC(=O)Nc2ccc(C)cc2)c1OCCC [Example 23]
3. COc1ccc(-c2ccc(Oc3cccc(C(C)(C)C)c3)c(NC(=O)Nc3ccccc3Cl)c2)cc1C(=O)O [Example 110]
4. O=C(Nc1ccc(Cl)cc1)Nc1cc(-c2ccccc2-c2nnn[nH]2)ccc1Oc1cccc2c1CCCC2 [Example 189]
5. COc1ccccc1NC(=O)Nc1cc(-c2cccc(C(=O)O)c2)ccc1Oc1ccccc1C(C)(C)C [Example 227]

output:
1: 0.32 µM; 2: 0.13 µM; 3: 2.05 µM; 4: 1.24 µM; 5: 10 µM

Batch request: IC50 per item, same order as input.
1. Cc1ccc(NC(=O)Nc2cc(-c3ccccc3-c3nnn[nH]3)ccc2OC(CCC(F)(F)F)c2ccc(Cl)cc2)cc1 (stereo not shown) [Example 312]
2. CCc1ccccc1Oc1ccc(-c2ccc(OC)c(C(=O)O)c2)cc1NC(=O)Nc1cccc(Cl)c1 [Example 58]
3. COc1ccc(-c2ccc(Oc3ccccc3C(C)(C)C)c(NC(=O)Nc3ccc(C(F)(F)F)cc3)c2)cc1C(=O)O [Example 43]

output:
1: 0.08 µM; 2: 0.77 µM; 3: 10 µM
